TEST_TARGET: Proto-oncogene tyrosine-protein kinase Src (Homo sapiens) (UniProt P12931)
Sequence (P12931 2-536 limits assumed): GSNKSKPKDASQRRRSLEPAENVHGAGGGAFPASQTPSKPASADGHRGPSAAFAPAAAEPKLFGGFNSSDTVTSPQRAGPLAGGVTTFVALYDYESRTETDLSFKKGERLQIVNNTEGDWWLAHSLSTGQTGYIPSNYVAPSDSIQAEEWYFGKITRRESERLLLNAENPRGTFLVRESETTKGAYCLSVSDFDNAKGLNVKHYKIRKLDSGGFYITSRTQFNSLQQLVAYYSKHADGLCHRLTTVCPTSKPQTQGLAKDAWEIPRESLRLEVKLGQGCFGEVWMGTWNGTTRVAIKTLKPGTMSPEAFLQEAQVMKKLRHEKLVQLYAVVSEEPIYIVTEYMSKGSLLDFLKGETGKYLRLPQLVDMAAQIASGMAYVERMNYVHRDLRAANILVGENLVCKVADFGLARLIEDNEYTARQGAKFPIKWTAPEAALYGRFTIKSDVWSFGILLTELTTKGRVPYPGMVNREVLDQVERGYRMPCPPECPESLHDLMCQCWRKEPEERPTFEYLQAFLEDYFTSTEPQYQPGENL
SETUP_CONDITIONS: at 0.1 µM
The following compounds are listed with their measured inhibition values.
Answer with a number only, understood to be in %.

RECORD_SMILES: COc1ccc(-c2cc(-c3c[nH]nc3-c3ccccn3)ccn2)cc1
TEST_TARGET: Proto-oncogene tyrosine-protein kinase Src (Homo sapiens) (UniProt P12931)
MEASURE_UNIT: %
OBSERVED_VALUE: 0.76

RECORD_SMILES: CCn1c(-c2nonc2N)nc2cnc(Oc3cccc(NC(=O)c4ccc(N(C)C)cc4)c3)cc21
TEST_TARGET: Proto-oncogene tyrosine-protein kinase Src (Homo sapiens) (UniProt P12931)
MEASURE_UNIT: %
OBSERVED_VALUE: 3.64

RECORD_SMILES: COC(=O)c1sc(-n2cnc3cc(OC)c(OC)cc32)cc1OCc1ccccc1C(F)(F)F
TEST_TARGET: Proto-oncogene tyrosine-protein kinase Src (Homo sapiens) (UniProt P12931)
MEASURE_UNIT: %
OBSERVED_VALUE: 1.51

RECORD_SMILES: NS(=O)(=O)c1ccc(Nc2ncc(-c3ccccc3)o2)cc1
TEST_TARGET: Proto-oncogene tyrosine-protein kinase Src (Homo sapiens) (UniProt P12931)
MEASURE_UNIT: %
OBSERVED_VALUE: 1.97

RECORD_SMILES: CS(=O)(=O)CCNCc1ccc(-c2ccc3ncnc(Nc4ccc(OCc5ccccc5)c(C(F)(F)F)c4)c3c2)o1
TEST_TARGET: Proto-oncogene tyrosine-protein kinase Src (Homo sapiens) (UniProt P12931)
MEASURE_UNIT: %
OBSERVED_VALUE: 6.38

Notebook: pull reported inhibition for Proto-oncogene tyrosine-protein kinase Src (Homo sapiens) (UniProt P12931), entry `Cc1cccc(Nc2ncc(-c3ccccc3)o2)c1`
8.62

Hi! What's the reported inhibition for `Nc1nc(-c2cccc(Cl)c2)c(-c2ccc3ncccc3n2)s1` on Proto-oncogene tyrosine-protein kinase Src (Homo sapiens) (UniProt P12931)?
4.18

Query the reported inhibition for Proto-oncogene tyrosine-protein kinase Src (Homo sapiens) (UniProt P12931); item: `COc1cc(/C=N/Nc2ncnc3[nH]ncc23)ccc1O`
27.9

State its inhibition on Proto-oncogene tyrosine-protein kinase Src (Homo sapiens) (UniProt P12931): `FC(F)(F)c1cccc(-c2nn3ncccc3c2-c2ccnc(Nc3ccc4c(c3)OCCO4)n2)c1`
12.8

Lab note: need inhibition for `Nc1ncc(-c2cccc(S(N)(=O)=O)c2)c2scc(-c3ccc(F)c(Cl)c3)c12` on Proto-oncogene tyrosine-protein kinase Src (Homo sapiens) (UniProt P12931), anyone have it?
19.6

# returns recorded inhibition (system: Proto-oncogene tyrosine-protein kinase Src (Homo sapiens) (UniProt P12931)) for `CCCN1CCC(c2ccc(Nc3nc(Nc4cc(F)ccc4C(N)=O)c4cc[nH]c4n3)c(OC)c2)CC1`;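 also: values are averaged inhibition of Src, tested against the GSK PKIS kinase inhibitor set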
-0.59

---

TEST_TARGET: Cyclin-dependent kinase 6 (Homo sapiens) (UniProt Q00534);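 also: mean percent inhibition of the kinase bound to its cyclin partner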
Sequence (Q00534 whole entry): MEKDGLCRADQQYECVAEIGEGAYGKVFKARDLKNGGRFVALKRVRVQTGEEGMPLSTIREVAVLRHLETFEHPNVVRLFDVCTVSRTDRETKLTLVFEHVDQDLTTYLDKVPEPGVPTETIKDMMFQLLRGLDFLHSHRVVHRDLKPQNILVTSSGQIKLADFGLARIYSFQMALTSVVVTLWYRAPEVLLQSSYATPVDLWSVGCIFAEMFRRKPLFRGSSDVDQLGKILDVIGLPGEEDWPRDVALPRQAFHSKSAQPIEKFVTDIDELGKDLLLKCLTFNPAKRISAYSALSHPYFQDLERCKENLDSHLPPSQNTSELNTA
SETUP_CONDITIONS: at 1 µM
In this section, each of the molecules is paired with its reported inhibition.
The reply should be a number in %, with the unit left off.

Before answering, review these 4 worked examples.
MOLECULE: COc1ccc2c(-c3ccnc(Nc4cccc(OC(F)(F)F)c4)n3)cnn2n1
OBSERVED_VALUE: 14.6
--
MOLECULE: COc1cc2c(cc1Nc1nc(Nc3ccsc3C(N)=O)c3cc[nH]c3n1)N(C(=O)CN(C)C)CCC2(C)C
OBSERVED_VALUE: 9.92
--
MOLECULE: CC(=O)NCc1cccc(C#Cc2cncnc2Nc2ccc(OCc3cccc(F)c3)c(Cl)c2)c1
OBSERVED_VALUE: 5.05
--
MOLECULE: c1cc(-c2cnn3nc(N4CCOCC4)ccc23)nc(NC2CC2)n1
OBSERVED_VALUE: 30.7

Param item = `COC(=O)Nc1nc2ccc(Oc3ccc(NC(=O)Nc4cccc(Cl)c4)cc3)cc2[nH]1` ; retrieve measured inhibition.
3.51

Given the entry `CNC(=O)c1cccc(C#Cc2cncnc2Nc2ccc(OCc3cccc(F)c3)c(Cl)c2)c1` , report its measured inhibition.
1.6

// query inhibition value for entry `CC(C)COC(=O)c1ccc2c(c1)/C(=C/Nc1ccc(S(N)(=O)=O)cc1)C(=O)N2`
68.6

Param item = `CCN(CC)S(=O)(=O)c1ccc(OC)c(Nc2ncc(-c3ccccc3)o2)c1` ; retrieve measured inhibition.
2.95

May I ask what inhibition has been recorded for `COC(=O)Nc1nc2ccc(S(=O)(=O)c3ccc(NC(=O)Nc4cc(C(F)(F)F)ccc4F)cc3)cc2[nH]1` ?
2.9

Would you mind telling me what inhibition value was observed for `Fc1ccc(-c2nn3ncccc3c2-c2ccnc(Nc3ccc4c(c3)OCCO4)n2)cc1` ?
2.72

inhibition lookup needed for CC1=C(C(=O)Nc2cc(Cl)c3[nH]ncc3c2)C(c2ccc(C(F)(F)F)cc2)CC(=O)N1 (configuration not stated) , thanks.
-0.24

# lookup: inhibition of `COc1ccc(-c2cc3c(N)ncnc3o2)cc1`
2.82

---

TEST_TARGET: Serine/threonine-protein kinase TBK1 (Homo sapiens) (UniProt Q9UHD2)
Sequence (Q9UHD2 whole entry): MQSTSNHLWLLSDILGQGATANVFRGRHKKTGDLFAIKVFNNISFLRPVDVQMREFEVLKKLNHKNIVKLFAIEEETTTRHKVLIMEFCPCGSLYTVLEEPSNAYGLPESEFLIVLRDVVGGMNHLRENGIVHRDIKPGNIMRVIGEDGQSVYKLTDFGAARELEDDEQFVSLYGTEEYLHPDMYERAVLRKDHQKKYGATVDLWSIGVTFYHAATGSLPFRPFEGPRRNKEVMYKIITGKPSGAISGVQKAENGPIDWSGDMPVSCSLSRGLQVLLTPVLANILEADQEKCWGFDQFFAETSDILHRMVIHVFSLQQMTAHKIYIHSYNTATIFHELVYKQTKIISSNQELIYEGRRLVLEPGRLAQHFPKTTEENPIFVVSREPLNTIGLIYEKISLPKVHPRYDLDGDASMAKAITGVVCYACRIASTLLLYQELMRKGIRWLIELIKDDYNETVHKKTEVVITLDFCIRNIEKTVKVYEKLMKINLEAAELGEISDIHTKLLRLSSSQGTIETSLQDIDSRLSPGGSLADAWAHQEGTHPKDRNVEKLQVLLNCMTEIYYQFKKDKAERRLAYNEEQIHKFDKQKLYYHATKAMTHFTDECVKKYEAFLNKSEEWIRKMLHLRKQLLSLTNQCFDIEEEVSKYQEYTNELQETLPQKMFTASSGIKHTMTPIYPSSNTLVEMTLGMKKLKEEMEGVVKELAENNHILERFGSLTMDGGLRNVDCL
SETUP_CONDITIONS: at 1 µM
Let's look at some molecules and their measured inhibition.
// units = %; emit number, no label

Please review the following examples before continuing.
RECORD_SMILES: CCN1CCC(CC(=O)Nc2n[nH]c3nnc(-c4cccc(F)c4F)cc23)CC1
TEST_TARGET: Serine/threonine-protein kinase TBK1 (Homo sapiens) (UniProt Q9UHD2)
OBSERVED_VALUE: 4.19
--
RECORD_SMILES: Fc1cccc(COc2ccc(Nc3ncnc4sc(-c5ccco5)cc34)cc2Cl)c1
TEST_TARGET: Serine/threonine-protein kinase TBK1 (Homo sapiens) (UniProt Q9UHD2)
OBSERVED_VALUE: 2.89
--
RECORD_SMILES: Cc1ccc(O)cc1Nc1ccnc2cc(-c3ccccn3)ccc12
TEST_TARGET: Serine/threonine-protein kinase TBK1 (Homo sapiens) (UniProt Q9UHD2)
OBSERVED_VALUE: 6.68
--
RECORD_SMILES: Fc1ccc(-c2nn3ncccc3c2-c2ccnc(Nc3ccc4c(c3)OCCO4)n2)cc1
TEST_TARGET: Serine/threonine-protein kinase TBK1 (Homo sapiens) (UniProt Q9UHD2)
OBSERVED_VALUE: 4.55
--
RECORD_SMILES: CCn1c(-c2nonc2N)nc2ccccc21
TEST_TARGET: Serine/threonine-protein kinase TBK1 (Homo sapiens) (UniProt Q9UHD2);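 also: values are mean inhibition of TBK1, screened as part of the GSK published kinase inhibitor set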
OBSERVED_VALUE: 3.36

Lab note: need inhibition with Serine/threonine-protein kinase TBK1 (Homo sapiens) (UniProt Q9UHD2) for entry `N#Cc1c(NC(=O)c2ccc(F)cc2)sc2c1CCCC2` , please look it up.
0.54

---

TEST_TARGET: Hepatocyte growth factor receptor (Homo sapiens);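 also: reported values are means of MET inhibition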
SETUP_CONDITIONS: at 0.1 µM
MEASUREMENT_KIND: inhibition (%)
Give the quantity in %, number only.

Answered examples (5):
RECORD_SMILES: Fc1ccc(-c2cc(-c3c[nH]nc3-c3ccccn3)ccn2)cc1
inhibition, %: 6.72
//
RECORD_SMILES: NS(=O)(=O)c1ccc(N/N=C2\C(=O)Nc3ccc4ncccc4c32)cc1
inhibition, %: 4.71
//
RECORD_SMILES: COc1ccc(-c2cc(-c3c[nH]nc3-c3ccccn3)ccn2)cc1
inhibition, %: 8.94
//
RECORD_SMILES: Cc1cccc2c1NC(=O)/C2=N\Nc1ccc(S(N)(=O)=O)cc1
inhibition, %: 4.07
//
RECORD_SMILES: Fc1ccc(-c2nn3ncccc3c2-c2ccnc(Nc3ccc4c(c3)OCCO4)n2)cc1
inhibition, %: 4.89

For `CCN(CC)S(=O)(=O)c1ccc(OC)c(Nc2ncc(-c3ccccc3)o2)c1` , what is its reported inhibition?
3.7

Item under review: `O=S(=O)(CCNCc1ccc(-c2ccc3ncnc(Nc4ccc(OCc5cccc(F)c5)c(Cl)c4)c3c2)o1)c1ccccc1` . Reported inhibition?
-0.44

I am curious: what inhibition value has been reported for `COc1cc(/C=N/Nc2ncnc3[nH]ncc23)ccc1O` ?
1.87

I am curious: what inhibition value has been reported for `COc1cc(Nc2nccc(Nc3ccc4c(C)n[nH]c4c3)n2)cc(OC)c1OC` ?
1.57

// returns reported inhibition for input `COc1ccc(-c2oc3ncnc(N)c3c2-c2ccc(NC(=O)Nc3cc(C(F)(F)F)ccc3F)cc2)cc1`
9.34

Query: inhibition; subject: `Fc1ccc(-c2nn3ccccc3c2-c2ccncc2)cc1`
-1.86

Return reported inhibition; argument: `CN1CCC(n2cnc(-c3ccc(F)cc3)c2-c2ccnc(N)n2)CC1`
2.36

Recorded inhibition of `Cc1ccc(O)cc1Nc1ccnc2cc(-c3ccccn3)ccc12` , please.
11.7

Which inhibition reading was recorded for the compound `COc1cc2ncn(-c3cc(OCc4ccccc4C(F)(F)F)c(C(=O)N(C)C)s3)c2cc1OC` ?
1.4

Recorded inhibition for `CN(C)CCOc1ccc(-c2nc(-c3ccncc3)c(-c3ccc4c(c3)CC/C4=N\O)[nH]2)cc1` , please?
3.76

Recorded inhibition for `COc1cc2c(cc1Nc1nc(Nc3ccsc3C(N)=O)c3cc[nH]c3n1)N(C(=O)CN(C)C)CCC2(C)C` , please?
5.6
